src = the supplement of paper PMC8728848

Measured glycan array binding signal (z-score) accompanies every entry in the list below.
Biological target: Gal(b1-3)GalNAc(a1-3)[Fuc(a1-2)]Gal(b1-4)GlcNAc
Assay: glycan array binding signal (z-score within array); higher = stronger binding
Conditions: glycan notation: IUPAC condensed, linker removed
The sample as a whole holds a higher share of the strongest signals than the screen did.
ENDPOINT: glycan array binding signal (z-score)

binder="Gal 2 (Homo sapiens), P05162 (protein) MTGELEVKNMDMKPGSTLKITGSIADGTDGFVINLGQGTDKLNLHFNPRFSESTIVCNSLDGSNWGQEQREDHLCFSPGSEVKFTVTFESDKFKVKLPDGHELTFPNRLGHSHLSYLSVRGGFNMSSFKLKE" endpoint="glycan array binding signal (z-score)" reported_measurement=9.48
binder="Mincle (Homo sapiens), Q9ULY5 (protein) MNSSKSSETQCTERGCFSSQMFLWTVAGIPILFLSACFITRCVVTFRIFQTCDEKKFQLPENFTELSCYNYGSGSVKNCCPLNWEYFQSSCYFFSTDTISWALSLKNCSAMGAHLVVINSQEEQEFLSYKKPKMREFFIGLSDQVVEGQWQWVDGTPLTKSLSFWDVGEPNNIATLEDCATMRDSSNPRQNWNDVTCFLNYFRICEMVGINPLNKGKSL" endpoint="glycan array binding signal (z-score)" reported_measurement=-0.127
